System: human colon veins
testName: Activity against 5-HT on the human colon in vitro (contraction of human colonic vein rings)
conditionSummary: Homo sapiens, read-out: IC-50, activity against 5-HT on the human colon in vitro
Counter-ions that a name gives are not always drawn.
metricName: pIC50
Keep in mind that pIC50 stands for -log10 of concentration in molar terms.

// sample O=C1CC2(CCCC2)CC(=O)N1CCCCN1CCN(c2nsc3ccccc23)CC1 [Compound III, hydrochloride] , its pIC50 was 9.00

----------
systemUnderTest: 5-HT2 (Homo sapiens, UniProt P28223)
Sequence (P28223 whole entry, species assumed): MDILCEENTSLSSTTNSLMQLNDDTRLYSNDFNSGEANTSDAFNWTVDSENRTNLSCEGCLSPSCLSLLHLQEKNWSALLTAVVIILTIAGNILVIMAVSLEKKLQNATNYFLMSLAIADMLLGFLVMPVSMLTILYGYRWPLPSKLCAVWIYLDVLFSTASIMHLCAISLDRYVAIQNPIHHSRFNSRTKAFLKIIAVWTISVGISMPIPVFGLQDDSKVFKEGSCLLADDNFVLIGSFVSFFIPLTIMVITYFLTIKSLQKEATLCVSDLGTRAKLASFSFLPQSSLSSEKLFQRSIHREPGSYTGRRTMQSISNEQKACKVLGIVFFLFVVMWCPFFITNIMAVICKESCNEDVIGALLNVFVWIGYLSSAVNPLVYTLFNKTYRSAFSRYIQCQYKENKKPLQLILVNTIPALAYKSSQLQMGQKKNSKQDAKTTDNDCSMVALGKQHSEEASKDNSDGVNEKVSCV
testName: Receptor Blocking Profile: inhibition of labeled 5-HT binding, 5-HT2
conditionSummary: read-out: Receptor Blocking Profile IC-50, 5-HT2; displacement of labeled 5-HT
Structures can show the parent of a compound that is named as a salt.
metricName: IC50 (nM)
The answer is to be given in nM; state only the numeric part.

The value of IC50 measured for the compound O=C1CC2(CCCC2)CC(=O)N1CCCCN1CCN(c2nsc3ccccc23)CC1 [Compound III, hydrochloride] turned out to be 1.7

----------
IC50 by entry:
systemUnderTest: Dopamine-2 (Homo sapiens, UniProt P14416)
Sequence (P14416 whole entry): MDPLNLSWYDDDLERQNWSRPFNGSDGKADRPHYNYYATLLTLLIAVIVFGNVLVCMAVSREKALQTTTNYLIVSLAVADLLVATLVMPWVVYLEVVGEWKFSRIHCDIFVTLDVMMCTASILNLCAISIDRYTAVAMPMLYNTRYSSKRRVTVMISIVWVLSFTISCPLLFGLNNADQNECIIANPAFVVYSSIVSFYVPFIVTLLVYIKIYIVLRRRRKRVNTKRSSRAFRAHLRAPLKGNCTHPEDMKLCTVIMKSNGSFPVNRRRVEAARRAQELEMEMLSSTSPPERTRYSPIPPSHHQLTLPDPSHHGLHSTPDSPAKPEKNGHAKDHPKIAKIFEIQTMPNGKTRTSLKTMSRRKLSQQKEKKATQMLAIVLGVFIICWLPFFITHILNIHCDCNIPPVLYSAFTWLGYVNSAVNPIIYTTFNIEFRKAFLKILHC
testName: Receptor Blocking Profile, Dopamine-2
Type: binding
conditionSummary: read-out: Receptor Blocking Profile IC-50, Dopamine-2
Structures can show the parent of a compound that is named as a salt.

CN1CCCCC1CCc1ccccc1NC(=O)C=Cc1ccccc1.Cl (centres unmarked) [Compound I, hydrochloride]	> 1000 nM

Briefly, IC50 measured for O=C1CC2(CCCC2)CC(=O)N1CCCCN1CCN(c2nsc3ccccc23)CC1 [Compound III, hydrochloride] : 8.4 nM

----------
systemUnderTest: 5-HT2 (Homo sapiens)
testName: Receptor Blocking Profile: inhibition of labeled 5-HT binding, 5-HT2
metricName: pIC50
Interpret pIC50 as the negative base-10 log of the concentration measured in mol/L.

Noted for CN1CCCCC1CCc1ccccc1NC(=O)C=Cc1ccccc1.Cl (stereo not shown) [Compound I, hydrochloride] : its pIC50 reads 8.47

----------
systemUnderTest: 5-HT1
testName: Receptor Blocking Profile, 5-HT1
conditionSummary: read-out: Receptor Blocking Profile IC-50, 5-HT1
Structures can show the parent of a compound that is named as a salt.
metricName: IC50 (nM)
Give the number; nM is assumed, so skip it.

CN1CCCCC1CCc1ccccc1NC(=O)C=Cc1ccccc1.Cl (stereo not drawn) [Compound I, hydrochloride]	22000

Briefly, IC50 measured for O=C1CC2(CCCC2)CC(=O)N1CCCCN1CCN(c2nsc3ccccc23)CC1 [Compound III, hydrochloride] : 12.5

----------
Measured pIC50 values are reported for all entries that follow.
systemUnderTest: Alpha-receptor
testName: Receptor Blocking Profile, Alpha-receptor
Assay type: binding
conditionSummary: read-out: Receptor Blocking Profile IC-50, Alpha-receptor
Counter-ions that a name gives are not always drawn.
// pIC50 here means minus log10 of the molar concentration (mol/L)

Entry under test: O=C1CC2(CCCC2)CC(=O)N1CCCCN1CCN(c2nsc3ccccc23)CC1 [Compound III, hydrochloride] . Its pIC50 was 7.33

Entry CCc1nn(CCCN2CCN(c3cccc(Cl)c3)CC2)c(=O)n1CCOc1ccccc1 [Compound II, hydrochloride] , pIC50 reported as 6.80
